GI50 by entry:
- Tested on: RXF 393 renal
- METHOD NOTES: NCI tumour cell line growth inhibition, 48 h

COMPOUND | GI50
CN(C)c1ccc(/C=C/c2ccnc3c(O)cccc23)cc1 | 813 nM
N#Cc1c(NC(=O)NCc2ccccc2)sc2c1CCCC2 | 481 nM
C=CCC(N[C@@H](CO)c1ccccc1)c1cn(Cc2ccccc2Cl)c(=O)n(Cc2ccccc2Cl)c1=O (stereo not given in full) | > 100000 nM
NS(=O)(=O)OCC1OC(n2cnc3cncnc32)C(O)C1O (stereo not given) | 23.5 nM
CC[C@H](NC(=O)[C@H]1CCCCN1C)C(=O)N(C)[C@H](C[C@@H](OC(C)=O)c1nc(C(=O)N[C@@H](Cc2ccccc2)C[C@H](C)C(=O)O)cs1)C(C)C | 3.91 nM

* * *

- Tested on: K-562 leukemia
- METHOD NOTES: NCI tumour cell line growth inhibition, 48 h; in the data active means GI50 below about 0.43 µM; inactive means the rest
Possible outcomes: 1 (active), 0 (inactive)

MOLECULE | LABEL
CCCCCCCC/C=C/CCCCCCCC1=NC(C)(C)CN1CC(C)O (stereo not given) | 0
O=S(=O)([O-])c1ccc(N=Cc2ccccc2[O-])cc1.O=S(=O)([O-])c1ccc(N=Cc2ccccc2[O-])cc1.[O]=[U+2]=[O] | 0
CC[C@H](NC(=O)[C@H]1CCCCN1C)C(=O)N(C)[C@H](C[C@@H](OC(C)=O)c1nc(C(=O)N[C@@H](Cc2ccccc2)C[C@H](C)C(=O)O)cs1)C(C)C | 1
CSc1ccc(-c2ccccc(=O)c2O)cc1 | 0
N.N.NCCCCCN.O=C([O-])CCl.O=C([O-])CCl.O=C([O-])CCl.O=C([O-])CCl.[Pt+4].[Pt+4] | 0
OC(c1cc(-c2cccc(Cl)c2)nc2ccccc12)C1CCCCN1 (stereo not given) | 0
COc1cc2nccc(Oc3ccc(NC(=O)NC4CC4)c(Cl)c3)c2cc1C(N)=O | 0
O=C(COc1ccc(/C=C2\COc3ccccc3C2=O)cc1)Nc1nccs1 | 0
CCOC(=O)c1ccc(Nc2sc(C(=O)c3ccc(Br)cc3)c(N)c2C#N)cc1 | 0
Cc1cc(=O)[nH]c(N/N=C/c2cc(Br)ccc2O)n1 | 0

* * *

TGI by entry:
- Test system: NCI-H23 lung
- METHOD NOTES: NCI tumour cell line growth inhibition, 48 h

COMPOUND | TGI
CC[C@@H]1[C@@H](C)O[C@@](O)([C@@H](C)[C@H](O)[C@H](C)[C@H]2OC(=O)/C=C/C=C/[C@H](C)[C@@H]([C@@H](C)[C@@H](O)[C@H](C)[C@@]3(O)C[C@@H](O[C@H]4C[C@@H](O)[C@H](O)C(C)O4)[C@H](CC)[C@@H](C)O3)OC(=O)/C=C/C=C/[C@@H]2C)C[C@H]1O[C@@H]1C[C@@H](O)[C@H](O)C(C)O1 (stereo partly drawn) | 0.149 µM
CN1C(=O)CCC2[C@@H]3CC=C4C[C@@H](O)CC[C@]4(C)C3CC[C@@]21C (stereo partly drawn) | > 100 µM
CN(C)c1ccc(/C=C/c2ccnc3c(O)cccc23)cc1 | > 100 µM

* * *

- Test system: HCT-15 colon
- METHOD NOTES: NCI tumour cell line growth inhibition, 48 h

MOLECULE | MEASUREMENT UNITS | COMPARATIVE SIGN | TGI
CCOC(=O)[C@@H](C)C[C@H](Cc1ccccc1)NC(=O)c1nc([C@@H](C[C@H](C(C)C)N(C)C(=O)[C@@H](NC(=O)[C@H]2CCCCN2C)C(C)C)OC(C)=O)sc1CCOCc1ccccc1 | µM | = | 1.51
CC1=C(O)c2cn(C)cc2C(=O)C1=O | µM | > | 100
CCOC(=O)c1ccccc1OC(=O)NNc1ccccc1 | µM | > | 100
COc1cc(C(=O)/C=C/c2ccc(OCCSCCCCCCCCCCSCCOc3ccc(/C=C/C(=O)c4cc(OC)c(OC)c(OC)c4)cc3)cc2)cc(OC)c1OC | µM | > | 100
CSc1ccc(-c2ccccc(=O)c2O)cc1 | µM | = | 29.7
CC1(C)CC(=O)C(/C=N/C(N)=S)=C(O)C1 | µM | > | 100
COc1cc(/C=C2\C[C@H]3[C@@H]4CC=C5C[C@@H](O)CC[C@]5(C)[C@H]4CC[C@]3(C)[C@H]2O)ccc1OCCN1CCCC1 | µM | = | 38
CC(=O)OCC(OC(C)=O)C(OC(C)=O)C(/C=N\Nc1nc2ccccc2c(=O)[nH]1)=N\Nc1nc2ccccc2c(=O)[nH]1 (stereo not given) | µM | > | 100
C=CCc1[nH]c2c(OCc3ccccc3)cc(N(CC=C)C(C)=O)cc2c1C | µM | = | 25.6
O=C(O)CSC(CC1(c2ccc(Cl)cc2)NC(=O)CS1)c1ccc(Cl)cc1 (stereo not given) | µM | > | 100

* * *

- System: UACC-257 melanoma
- METHOD NOTES: NCI tumour cell line growth inhibition, 48 h

COMPOUND | STUDY TARGET | COMPARATIVE SIGN | TGI [µM]
CC(C)(C)OC(=O)N[C@H]1CC(O)c2ccccc2N(CC(=O)O)C1=O (stereo not given in full) | UACC-257 melanoma | > | 100
COc1ccc(-c2csc(=Nc3ccccc3)n2CCCN(C)C)cc1 | UACC-257 melanoma | = | 37.5
CCN(CC)CCC(=O)c1ccc(Sc2ccc(F)cc2)cc1 | UACC-257 melanoma | = | 31
O=C(CC(CC(=O)Oc1c(Br)cc(Br)cc1C(=O)O)C(=O)Oc1c(Br)cc(Br)cc1C(=O)O)Oc1c(Br)cc(Br)cc1C(=O)O | UACC-257 melanoma | > | 100
Cc1ccc(Cl)cc1Nc1nc(C(F)(F)F)ccc1C(=O)N/N=C/c1cccnc1 | UACC-257 melanoma | = | 10.1

* * *

- Test system: SK-MEL-5 melanoma
- METHOD NOTES: NCI tumour cell line growth inhibition, 48 h
Returns class 1 if the recorded TGI is greater than or equal to 30 µM, and class 0 otherwise.

MOLECULE | STUDY TARGET | LABEL
CC(=O)C1C(=O)C(=O)N(c2ccccc2)C1=O (configuration not stated) | SK-MEL-5 melanoma | class 1
N#Cc1c(NC(=O)NCc2ccccc2)sc2c1CCCC2 | SK-MEL-5 melanoma | class 0
NC1=NC2=c3ccccc3=C(c3cnccn3)C2(c2cnccn2)c2ccccc21 (configuration not stated) | SK-MEL-5 melanoma | class 1
CC(=O)Nc1ccc(/C=c2\sc3nnc(CCC(=O)Nc4ccccc4Cl)n3c2=O)cc1 | SK-MEL-5 melanoma | class 1
CCN(CC)Cc1cc(Nc2c3ccccc3nc3c2[nH]c2ccccc23)cc(CN(CC)CC)c1O | SK-MEL-5 melanoma | class 0
CCOC(=O)c1ccc(Nc2sc(C(=O)c3ccc(Br)cc3)c(N)c2C#N)cc1 | SK-MEL-5 melanoma | class 1
O=C1NC(=S)N/C1=C\c1cc2c(=O)c3ccccc3sc2s1 | SK-MEL-5 melanoma | class 1
COc1cc(/C=C2/SC(c3ccccc3)N(Cc3ccccc3)C2=O)cc(OC)c1OC (configuration not stated) | SK-MEL-5 melanoma | class 0
Cc1cc(Nc2ccc(OCc3ccccc3)cc2)nc2cc(O)ccc12 | SK-MEL-5 melanoma | class 0
COc1ccc(CC2C3=C(CCN2C(=O)C2CCC2)CC2(CC3)OCCO2)cc1O (configuration not stated) | SK-MEL-5 melanoma | class 1
O=C1/C(=N\O)c2ccccc2S1(=O)=O | SK-MEL-5 melanoma | class 1
O=C(O)/C=C/C(=O)N1Cc2cc3ccccc3nc2C1 | SK-MEL-5 melanoma | class 1
CC1(C)CC(O)C2=C(O1)C(=O)c1ncccc1C2=O (configuration not stated) | SK-MEL-5 melanoma | class 0
Cc1cc([N+](=O)[O-])ccc1NC(=O)C(=O)C(C(=O)c1ccccc1-c1ccccc1)C1OC(=O)c2ccccc21 (configuration not stated) | SK-MEL-5 melanoma | class 0
CCOc1ccc(N/C(=C(/C(Cl)=C(/Cl)Nc2ccccc2)[N+](=O)[O-])n2nnc3ccccc32)cc1 | SK-MEL-5 melanoma | class 1
CCCCCC1CC=CC(=O)O1 (configuration not stated) | SK-MEL-5 melanoma | class 0
CCN(CC)CCC(=O)c1ccc(Sc2ccc(F)cc2)cc1 | SK-MEL-5 melanoma | class 1
CC1=C(O)c2cn(C)cc2C(=O)C1=O | SK-MEL-5 melanoma | class 1
Cc1cc([N+](=O)[O-])ccc1Sc1c2ccccc2nc2cc(Cl)ccc12 | SK-MEL-5 melanoma | class 1
COC(=O)CCC(NC(=S)N/N=C/c1ccccn1)C(=O)OC (configuration not stated) | SK-MEL-5 melanoma | class 1
CCOP(=O)(OCC)C(C)(C)N(C)/C(F)=N/C(F)(F)F | SK-MEL-5 melanoma | class 1

Data provenance is PubChem BioAssay (NCI).
